- studyTarget: K-Ras protein (Homo sapiens, UniProt P01116, G12V)
- Construct: in SW620 cells, compound I-a-1 can effectively enhance the degradation of endogenous K-RAS-G12V proteins; endogenous in cells; host or cells: SW-620
- Sequence (P01116 1-188 isoform P01116-2 G12V): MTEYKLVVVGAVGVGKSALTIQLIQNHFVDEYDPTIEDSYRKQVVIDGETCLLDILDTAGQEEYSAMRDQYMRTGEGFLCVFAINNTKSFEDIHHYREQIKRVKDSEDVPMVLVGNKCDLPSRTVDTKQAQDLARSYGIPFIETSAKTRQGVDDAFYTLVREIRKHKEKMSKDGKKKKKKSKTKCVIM
- method: K-Ras protein degradation rate by Western blot in SW-620 cells
- Assay type: cell-based
- experimentalSetup: 10 μM, SW-620 cells, 24 h, Western blot, relative to DMSO control; read-out: Degradation rate of compounds at 10 μM on Ras protein (%)
experimentalReadout: percent K-Ras protein degradation (single point) at 10 µM (%)

Reference set (5 entries):
> print(dat)
                                   compound  endpointunit  observedvalue
1  O=C(NCc1c(F)cccc1Cl)c1coc(-c2cnc3cccnn23)c1 [VIII-c-1]             %             12
2  O=C(NCc1c(F)cccc1Cl)c1cccc(-c2cnc3ccccn23)c1 [IX-d-1]             %             30
3  N#Cc1ccc(CNC(=O)c2c[nH]c(-c3n[nH]c4ncccc34)c2)cc1 [III-f-31]             %             45
4  O=C(Nc1ccccc1)c1coc(-c2c[nH]c3ncccc23)c1 [II-b-2]             %             50
5  O=C(NCc1cc(F)ccc1F)c1c[nH]c(-c2n[nH]c3ncccc23)c1 [III-f-56]             %             70

[I] N#Cc1cccc(CNC(=O)c2c[nH]c(-c3n[nH]c4ncccc34)c2)c1 [III-f-32]
[II] O=C(Nc1ccccc1)c1ccc(-c2n[nH]c3ncccc23)cc1 [III-d-2]
[III] O=C(Nc1ccccc1)c1ccc(-c2n[nH]c3ncccc23)s1 [III-e-2]
Order the items by recorded percent K-Ras protein degradation (single point) at 10 µM; the first position goes to the largest value. Provide the labels, sequenced as the question asks.
I, III, II
(I: 60%, III: 40%, II: 18%)
